List of ΔTm values.
- study target: Glycogen synthase kinase-3 beta (Homo sapiens) (UniProt P49841)
- Sequence (P49841 whole entry, looked up): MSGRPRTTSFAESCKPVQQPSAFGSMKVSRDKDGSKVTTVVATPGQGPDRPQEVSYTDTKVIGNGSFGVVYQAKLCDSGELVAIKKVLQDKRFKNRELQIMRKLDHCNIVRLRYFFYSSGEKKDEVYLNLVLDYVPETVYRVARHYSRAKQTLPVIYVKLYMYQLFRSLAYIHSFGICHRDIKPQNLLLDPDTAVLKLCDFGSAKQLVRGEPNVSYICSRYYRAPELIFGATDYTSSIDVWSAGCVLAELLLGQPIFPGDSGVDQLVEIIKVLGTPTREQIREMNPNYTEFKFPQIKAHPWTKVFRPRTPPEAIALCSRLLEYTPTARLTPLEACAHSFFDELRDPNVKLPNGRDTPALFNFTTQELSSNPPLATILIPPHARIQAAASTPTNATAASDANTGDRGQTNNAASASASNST
- study conditions: Compound concentration 20.0 uM, Protein concentration 2.0 uM, Result type QC Liability
- Description: Thermal Shift Assay. Domain: start/stop: M26-R383
Please make sure the unit comes right after the number.

molecule	ΔTm
COc1cc(C(=O)NCCOCCOCCOCC(=O)N[C@H](C(=O)N2C[C@@H](O)C[C@H]2C(=O)NCc2ccc(-c3scnc3C)cc2)C(C)(C)C)ccc1Nc1ncc(C(F)(F)F)c(Oc2cccc3c2C(=O)CC3)n1	0 °C

Consider the record given below.
Input line: I'd like to know its ΔTm. The molecule in question is COc1ccc(-c2csc(NC(=O)[C@H]3CCCCN3S(=O)(=O)c3ccc(C)cc3)n2)cc1
Output line: 9.29 °C
